System: D-aminoacylase derived from Sebekia benihana IFO14309
Type: biochemical
Stated conditions: metal salt 1 mM
Kind request: treat 0.7 mM as inclusive, so D-Met at 0.7 mM or higher is 1, anything lower is -1.

Challenge: Is D-Met for [Ba+2].[Cl-].[Cl-] at or above 0.7 mM?
Response given: 1

Challenge: Then [Cl-].[Cl-].[Zn+2] ?
Response given: -1

Challenge: And for [Cl][Ni][Cl] ?
Response given: -1

Challenge: Now give it for [Cl][Fe][Cl] too.
Response given: -1

Challenge: And the next one, [Ca+2].[Cl-].[Cl-] ?
Response given: 1

Challenge: Also [Cl-].[K+] ?
Response given: 1

Challenge: How about [Cl-].[Cl-].[Mg+2] ?
Response given: 1

Challenge: Next record, please: [Cl][Hg][Cl]
Response given: -1

Challenge: # iterate: [Cl][Cu][Cl]
Response given: -1

Challenge: Let us now turn to [Cl][Mn][Cl]
Response given: 1

Challenge: And what about the molecule [Cl-].[Cl-].[Co+2] ?
Response given: -1
